# TESTED_TARGET: T1, Tfam HMG-box A (Homo sapiens, UniProt Q00059 43-122)
# T1 sequence: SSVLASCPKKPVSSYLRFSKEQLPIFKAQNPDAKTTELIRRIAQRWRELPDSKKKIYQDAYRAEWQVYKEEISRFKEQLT
# EXPERIMENTAL_PROTOCOL: intrinsic Trp fluorescence quenching
MEASURED_ATTRIBUTE: Kd (nM)
Only the number, expressed in nM, is required.

Exercise: I have this binder here, LSP 28 bp (dsDNA) DNA 1: TGTTAGTTGGGGGGTGACTGTTAAAAGT DNA 2: ACTTTTAACAGTCACCCCCCAACTAACA , and I need its recorded Kd.
Key: 6.5
